B1: Membrane-associated guanylate kinase, WW and PDZ domain-containing protein 2, residues 601 to 682; numbered along this chain, Q86UL8 (parent)
chain: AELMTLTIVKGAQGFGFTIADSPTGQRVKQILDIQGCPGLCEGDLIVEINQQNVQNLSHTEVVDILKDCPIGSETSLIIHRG

Variants of: B1
experimental.details: abundance fitness (aPCA) (normalised: wild type 0, dead -1); higher = more abundant; growth selection in yeast, the domain comes from the species named
reported.conditions: Homo sapiens
property.name: abundance fitness
Give bare numbers.

[[record]]
mutant_label = "L66W"
number = -0.521


Hi there! I need abundance fitness for each item below, if you can.
1. C41N
2. I65F
3. E42K
4. G39T

-0.012
-0.088
-0.016
-0.017

Hi team, please reply with abundance fitness for each item in this list.
1. G25P
2. N50H

-0.371
0.024
